# protocol details: protein stability index of a GFP-peptide fusion (yeast GPS) (PSI 1-4); higher = more stable; sorted into four equal gates, so the index is relative within each strain
# test conditions: san1∆

>  <macromolecule sequence>
LNELKAIKDKLEQDLHF [YIL149C/MLP2]

>  <protein stability index>
2.82

$$$$
>  <macromolecule sequence>
LALGSHNKLIQFGNACI [SSN2]

>  <protein stability index>
2.2

$$$$
>  <macromolecule sequence>
LQCPMLYVESTGKFVLQ [CSN12]

>  <protein stability index>
2.43

$$$$
>  <macromolecule sequence>
VTGASQFQRLAPSLTVP [PRE2]

>  <protein stability index>
1.36

$$$$
>  <macromolecule sequence>
NVLKAPFIKSESKPFSS [SIR4]

>  <protein stability index>
2.6

$$$$
>  <macromolecule sequence>
FLKYYGAHKFLDTYLPE [SIR2]

>  <protein stability index>
1.37

$$$$
>  <macromolecule sequence>
QIILAYIKYNILLTSIS [SRP68]

>  <protein stability index>
1.12

$$$$
>  <macromolecule sequence>
QKYNLLHVLPTLNSRAL [SNM1]

>  <protein stability index>
1.27

$$$$

###

# protocol details: protein stability index of a GFP-peptide fusion (yeast GPS) (PSI 1-4); higher = more stable; sorted into four equal gates, so the index is relative within each strain
# test conditions: ubr1∆
This listing pairs sequences with measured protein stability index.

>  <macromolecule sequence>
SQVLDLAKKIAPGKVEL [SMC2]

>  <protein stability index>
2.84

$$$$
>  <macromolecule sequence>
PSFTFGGSTTNNTTTTS [YOR098C/NUP1]

>  <protein stability index>
3.36

$$$$
>  <macromolecule sequence>
GILRRKSESDELQMRSF [RRP4]

>  <protein stability index>
3.16

$$$$
>  <macromolecule sequence>
GAKVKTMRRQKLTILQE [RET1]

>  <protein stability index>
2.22

$$$$
>  <macromolecule sequence>
QLIPIILRQRGPGFKFV [SRB4]

>  <protein stability index>
1.69

$$$$
>  <macromolecule sequence>
KEFDETIFNLPKNKLVP [FAS1]

>  <protein stability index>
3.07

$$$$
>  <macromolecule sequence>
GNRNSSSVFLPSRKDCM [BRR2]

>  <protein stability index>
3.22

$$$$
>  <macromolecule sequence>
SELFDEWFEQNNSEQDQ [ISW2]

>  <protein stability index>
1.95

$$$$
>  <macromolecule sequence>
IDNGAESSENEAEDDDN [RPC53]

>  <protein stability index>
2.81

$$$$
>  <macromolecule sequence>
SDDYDNEGAASSNPQSA [SMC1]

>  <protein stability index>
3.13

$$$$
>  <macromolecule sequence>
RLRTLCRDSDDHKRFIV [DIS3]

>  <protein stability index>
2.95

$$$$
>  <macromolecule sequence>
KWAGIKTRKFVFNPPKP [CYT1]

>  <protein stability index>
2.95

$$$$
>  <macromolecule sequence>
KLLAISKFNNADDVFTG [RPC31]

>  <protein stability index>
2.57

$$$$
>  <macromolecule sequence>
PRFLNKQERSKQERLKE [PRP28]

>  <protein stability index>
2.13

$$$$
>  <macromolecule sequence>
TTSRFSKQVTDYYQSIY [FAS2]

>  <protein stability index>
2.59

$$$$

###

# protocol details: protein stability index of a GFP-peptide fusion (yeast GPS) (PSI 1-4); higher = more stable; sorted into four equal gates, so the index is relative within each strain
# test conditions: san1∆

>  <macromolecule sequence>
MVNESDGVTHALYPQEA [RPB2]

>  <protein stability index>
3.05

$$$$
>  <macromolecule sequence>
PDDDKIVPLTEGDIQVL [RPT1]

>  <protein stability index>
2.7

$$$$
>  <macromolecule sequence>
RVASDTVHEMEEELKKL [SMC4]

>  <protein stability index>
3.29

$$$$
>  <macromolecule sequence>
PRTLIGHRATVTDIAII [RPN14]

>  <protein stability index>
3.29

$$$$
>  <macromolecule sequence>
KTTDHLFDAAFYMKKDA [RPO31]

>  <protein stability index>
3.21

$$$$
>  <macromolecule sequence>
FGAKPDENKASATSKPA [YJL041W/NSP1]

>  <protein stability index>
2.56

$$$$
>  <macromolecule sequence>
VVEPEHMADAKIMPKDI [SIR4]

>  <protein stability index>
3.33

$$$$
>  <macromolecule sequence>
TKPGVYYVPYSKLMPVL [RPC82]

>  <protein stability index>
1.91

$$$$
>  <macromolecule sequence>
AVIESVVNQPTGKIVDV [FAS1]

>  <protein stability index>
2.52

$$$$
>  <macromolecule sequence>
SIWGNGYSGYGNGITNT [SNF5]

>  <protein stability index>
3.35

$$$$
>  <macromolecule sequence>
VIYRNSLYKVSFLEKPK [YMR129W/POM152]

>  <protein stability index>
2.42

$$$$
>  <macromolecule sequence>
VTIIPLDKIYTRPISSQ [SMC2]

>  <protein stability index>
1.64

$$$$
>  <macromolecule sequence>
PHATATEKEPVPAVVDD [SNF6]

>  <protein stability index>
2.82

$$$$
>  <macromolecule sequence>
NKKSEENEMIKPMNKGQ [SWP82]

>  <protein stability index>
3.39

$$$$
>  <macromolecule sequence>
EIEPILMEIHNILKVDS [RGR1]

>  <protein stability index>
1.98

$$$$
>  <macromolecule sequence>
AVNWQDKQGWTPLFHAL [NAS6]

>  <protein stability index>
2.4

$$$$
>  <macromolecule sequence>
SYLSNSLDTSASTINGA [YML103C/NUP188]

>  <protein stability index>
1.76

$$$$
>  <macromolecule sequence>
SSEYETINISLSFSWAI [NUT1]

>  <protein stability index>
2.21

$$$$
>  <macromolecule sequence>
SSLMNGLGYVFEFQYLT [SRB5]

>  <protein stability index>
1.64

$$$$
>  <macromolecule sequence>
WTSTQRHHWQYTKASLA [SSN8]

>  <protein stability index>
1.42

$$$$
>  <macromolecule sequence>
CIFNFLQQQTPVTIWLF [SME1]

>  <protein stability index>
1.25

$$$$
>  <macromolecule sequence>
FQVHERLAPLIKEENDM [ARP7]

>  <protein stability index>
2.97

$$$$
>  <macromolecule sequence>
DEDEDNDLDEDDIYDIS [RPN4]

>  <protein stability index>
3.56

$$$$
>  <macromolecule sequence>
MALKFVSIKFTNAAFPF [ECM29]

>  <protein stability index>
1.76

$$$$
>  <macromolecule sequence>
ESHIDSRNNTLNVTPSK [SIR4]

>  <protein stability index>
2.75

$$$$
>  <macromolecule sequence>
VQGGNAAPSAADIKAVV [RPP2B]

>  <protein stability index>
2.88

$$$$
>  <macromolecule sequence>
PYFEQKIQETELKIRSK [RPT6]

>  <protein stability index>
2.96

$$$$
>  <macromolecule sequence>
VPCDRIEKSRLFSEKTI [SNF6]

>  <protein stability index>
2.62

$$$$
>  <macromolecule sequence>
TNTSKQFQKARNNVMLL [SRB8]

>  <protein stability index>
2.94

$$$$
>  <macromolecule sequence>
YCSGNIYDFHKMENLMR [YJL039C/NUP192]

>  <protein stability index>
2.52

$$$$

###

# protocol details: protein stability index of a GFP-peptide fusion (yeast GPS) (PSI 1-4); higher = more stable; sorted into four equal gates, so the index is relative within each strain
# test conditions: san1∆
The sequences listed here are annotated with their protein stability index.

>  <macromolecule sequence>
SIDPPGCVDIDDALHAK [DIS3]

>  <protein stability index>
3.25

$$$$
>  <macromolecule sequence>
EREEAEKKRAEQENMRK [MED2]

>  <protein stability index>
2.75

$$$$
>  <macromolecule sequence>
MSDHSLDKLNCAINSKS [RRP6]

>  <protein stability index>
2.59

$$$$
>  <macromolecule sequence>
MQANKLDSQETPSTEES [SWI3]

>  <protein stability index>
2.39

$$$$
>  <macromolecule sequence>
KNLIQLISLKLLTFEVT [SRB8]

>  <protein stability index>
1.24

$$$$
>  <macromolecule sequence>
NDLVKARDLLDDLEKTL [RPN9]

>  <protein stability index>
3.12

$$$$
>  <macromolecule sequence>
KKVNYKVTSYDITGDIR [ISW2]

>  <protein stability index>
2.83

$$$$
>  <macromolecule sequence>
VSISTSVKPHVVEPEHM [SIR4]

>  <protein stability index>
2.53

$$$$
>  <macromolecule sequence>
FKAIHGSQLRLSEWEEY [YCS4]

>  <protein stability index>
2

$$$$
>  <macromolecule sequence>
RWEMEAFGEFSLEGCVE [FAS2]

>  <protein stability index>
2.98

$$$$
>  <macromolecule sequence>
IYNKMIGVLNNSSESDE [RPN13]

>  <protein stability index>
2.94

$$$$
>  <macromolecule sequence>
LSKLCVPVANQFINLAG [QCR7]

>  <protein stability index>
1.81

$$$$
>  <macromolecule sequence>
LGKRSILAAAHRDAYSG [PRE2]

>  <protein stability index>
2.33

$$$$
>  <macromolecule sequence>
IVVMDCFNLPVVGTETR [RRI1]

>  <protein stability index>
2.29

$$$$
>  <macromolecule sequence>
LNDEYNYPQLTEDILKE [YCS4]

>  <protein stability index>
3

$$$$
>  <macromolecule sequence>
KKLSKKYNAFIASEVLI [RPL1A]

>  <protein stability index>
1.8

$$$$
>  <macromolecule sequence>
HIKKLLHQYYGDDESKI [FAS1]

>  <protein stability index>
3.07

$$$$
>  <macromolecule sequence>
EMGKLRERDITSLFHKF [RRI2]

>  <protein stability index>
1.79

$$$$
>  <macromolecule sequence>
KKPRKPRQTKKAKAQAQ [PGD1]

>  <protein stability index>
3.22

$$$$
>  <macromolecule sequence>
QFEKSRKVSGPRALQPS [RET1]

>  <protein stability index>
2.94

$$$$
>  <macromolecule sequence>
LREVVELPLLSPERFAT [RPT1]

>  <protein stability index>
2.47

$$$$
>  <macromolecule sequence>
YYKNFHNSVKRYQIMLP [SNM1]

>  <protein stability index>
1.33

$$$$
>  <macromolecule sequence>
AETQGSKVVIDSIIDNI [IRR1]

>  <protein stability index>
3.08

$$$$
>  <macromolecule sequence>
PIKADKDYSQILKEEFP [RPN5]

>  <protein stability index>
2.18

$$$$
>  <macromolecule sequence>
EYINNCKKNTKKCLKLA [POP4]

>  <protein stability index>
2.99

$$$$
>  <macromolecule sequence>
VEETEVPTVPPSQSEEQ [MED4]

>  <protein stability index>
2.43

$$$$
>  <macromolecule sequence>
FKKSKIDHINEESWEKV [SCL1]

>  <protein stability index>
2.84

$$$$
>  <macromolecule sequence>
GRKHVAALRTVKSLVDN [RPL9A]

>  <protein stability index>
2.91

$$$$
>  <macromolecule sequence>
GCGTVKRFNIGADPNYR [RPR2]

>  <protein stability index>
3.33

$$$$
>  <macromolecule sequence>
QQQQQQQQQQQHIYPSS [GAL11]

>  <protein stability index>
2.69

$$$$
>  <macromolecule sequence>
KPGSKPEKTSTELVDGR [SIR3]

>  <protein stability index>
3.26

$$$$

meta.source: the supplement of paper PMC9732359
